system: Mast/stem cell growth factor receptor Kit (Homo sapiens), P10721 [D816V]; conditions: at 1 µM
Sequence (P10721 whole entry D816V): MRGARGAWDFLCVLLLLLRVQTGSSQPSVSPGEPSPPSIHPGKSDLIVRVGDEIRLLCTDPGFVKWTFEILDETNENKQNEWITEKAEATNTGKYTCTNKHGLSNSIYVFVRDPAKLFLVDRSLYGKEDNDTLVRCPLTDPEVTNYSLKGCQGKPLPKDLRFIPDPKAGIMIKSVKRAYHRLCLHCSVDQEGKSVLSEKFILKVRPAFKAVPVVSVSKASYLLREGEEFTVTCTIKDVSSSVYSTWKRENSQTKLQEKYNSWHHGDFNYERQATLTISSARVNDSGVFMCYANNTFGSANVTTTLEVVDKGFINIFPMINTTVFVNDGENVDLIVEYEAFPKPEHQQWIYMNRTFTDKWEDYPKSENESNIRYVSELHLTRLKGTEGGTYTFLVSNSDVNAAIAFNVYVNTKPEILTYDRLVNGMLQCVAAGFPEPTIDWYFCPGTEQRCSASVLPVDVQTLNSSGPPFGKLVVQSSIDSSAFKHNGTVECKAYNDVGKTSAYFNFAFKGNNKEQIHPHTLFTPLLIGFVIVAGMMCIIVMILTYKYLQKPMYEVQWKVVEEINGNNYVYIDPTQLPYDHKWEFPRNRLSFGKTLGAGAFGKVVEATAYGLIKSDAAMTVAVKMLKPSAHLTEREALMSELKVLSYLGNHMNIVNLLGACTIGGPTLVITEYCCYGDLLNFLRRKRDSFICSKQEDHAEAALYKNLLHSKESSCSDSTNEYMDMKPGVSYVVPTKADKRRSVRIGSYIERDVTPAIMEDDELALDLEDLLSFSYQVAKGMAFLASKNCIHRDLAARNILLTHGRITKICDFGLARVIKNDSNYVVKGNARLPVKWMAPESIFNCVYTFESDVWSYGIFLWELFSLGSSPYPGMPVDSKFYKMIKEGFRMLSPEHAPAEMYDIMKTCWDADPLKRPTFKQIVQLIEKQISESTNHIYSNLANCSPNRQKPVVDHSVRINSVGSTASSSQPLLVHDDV
As shown below, each of these compounds has a reported inhibition value.
The reply should consist of the numeric value with the unit placed after it.

- compound: "Cn1cc(C=C2C(=O)Nc3cccnc32)c2ccccc21"
  assay.value: "5.81%"
- compound: "COc1ccc2cc(-c3c(-c4ccncc4)nc(-c4ccc([S+](C)[O-])cc4)n3C)ccc2c1 (stereo not given)"
  assay.value: "4.68%"
- compound: "CN1CCC(C(=O)Nc2n[nH]c3nnc(-c4ccccc4)cc23)CC1"
  assay.value: "3.19%"
- compound: "Cc1cccc(-c2n[nH]cc2-c2ccc3ncccc3n2)n1"
  assay.value: "18%"
- compound: "NS(=O)(=O)c1ccc(N/N=C2\\C(=O)Nc3ccc(C(=O)NCCc4c[nH]cn4)cc32)cc1"
  assay.value: "6.74%"

// inhibition value for CCN1CCC(CC(=O)Nc2n[nH]c3nc(-c4cccs4)c(Br)cc23)CC1 : -0.19%

Item: Fc1cccc(COc2ccc(Nc3ncnc4cc(-c5ccc[nH]5)sc34)cc2Cl)c1 | inhibition: 1.62%

Record CNC(=O)c1cncc(/C=C/c2c(Cl)cccc2Cl)c1 . Reported inhibition: 1.88%

# inhibition (compound: COc1cc2ncn(-c3cc(OCc4ccccc4C(F)(F)F)c(C(N)=O)s3)c2cc1OC ) is 7.66%

Query CC1=C(C(=O)Nc2ccc3[nH]ncc3c2)C(c2ccc3ccccc3c2)CC(=O)N1 (stereo not given) yields inhibition of -0.63%

* * *

biological target: Protein kinase C gamma type (Homo sapiens); conditions: at 0.1 µM;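 note: values are mean percent inhibition of PKC gamma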
Documented inhibition across a set of compounds
Number only, in %; omit the unit.

Worked cases, answers included:
- compound: "COc1cc(C=NNc2ncnc3c2cnn3-c2ccccc2)ccc1O"
  observation.type: "inhibition"
  assay.value: 1.8
- compound: "COc1cc2ncn(-c3cc(O[C@H](C)c4ccccc4Cl)c(C(N)=O)s3)c2cc1OC"
  observation.type: "inhibition"
  assay.value: 3.01

inhibition for Cn1cc(C=C2C(=O)Nc3cccnc32)c2ccccc21 is -1.77

For record CCCN1CCC(Oc2cc(Nc3nc(Nc4cccc(F)c4C(N)=O)c4cc[nH]c4n3)c(OC)cc2Cl)CC1 the listed inhibition is 2.93

Noted for COc1cccc(-n2ncc3c(N/N=C/c4cccc(F)c4)ncnc32)c1 : its inhibition reads 2.4

* * *

molecular target: Cyclin-dependent kinase 4 (Homo sapiens); details: at 1 µM;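 note: enzyme tested as the CDK4–cyclin D complex, with the value reported as mean percent inhibition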
observation.type: inhibition (%)
Give just the numeric value; % need not be written.

Previously resolved entries follow.
- compound: "CC(=O)Nc1cccc(C#Cc2cncnc2Nc2ccc(OCc3cccc(F)c3)c(Cl)c2)n1"
  target.system: "Cyclin-dependent kinase 4 (Homo sapiens)"
  assay.value: -1.42
- compound: "COc1ccc(-c2coc3ncnc(N)c23)cc1"
  target.system: "Cyclin-dependent kinase 4 (Homo sapiens)"
  assay.value: 5.78
- compound: "CCn1c(-c2nonc2N)nc2cncc(C(=O)N3CC[C@H](N)C3)c21"
  target.system: "Cyclin-dependent kinase 4 (Homo sapiens)"
  assay.value: 2.35
- compound: "Cc1nn(C)c2cc(N(C)c3ccnc(Nc4cccc(S(N)(=O)=O)c4)n3)ccc12"
  target.system: "Cyclin-dependent kinase 4 (Homo sapiens)"
  assay.value: 4.46

response.value for CC1=C(C(=O)Nc2ccc3[nH]ncc3c2)C(c2ccc(F)cc2)NC(=O)N1 (stereo unspecified) (field: inhibition) = 4.05

Consider O=C1NC(=O)C(N2CCc3ccccc32)=C1c1ccc(Cl)cc1 . Its measured inhibition is 5.74

Reported inhibition for CCn1c(-c2nonc2N)nc2cncc(C(=O)N3CCNCC3)c21 was 3.57

* * *

target: Serine/threonine-protein kinase MRCK alpha (Homo sapiens) (UniProt Q5VT25); conditions: at 1 µM;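 note: each value is an averaged percent inhibition of MRCK alpha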
Sequence (Q5VT25 whole entry): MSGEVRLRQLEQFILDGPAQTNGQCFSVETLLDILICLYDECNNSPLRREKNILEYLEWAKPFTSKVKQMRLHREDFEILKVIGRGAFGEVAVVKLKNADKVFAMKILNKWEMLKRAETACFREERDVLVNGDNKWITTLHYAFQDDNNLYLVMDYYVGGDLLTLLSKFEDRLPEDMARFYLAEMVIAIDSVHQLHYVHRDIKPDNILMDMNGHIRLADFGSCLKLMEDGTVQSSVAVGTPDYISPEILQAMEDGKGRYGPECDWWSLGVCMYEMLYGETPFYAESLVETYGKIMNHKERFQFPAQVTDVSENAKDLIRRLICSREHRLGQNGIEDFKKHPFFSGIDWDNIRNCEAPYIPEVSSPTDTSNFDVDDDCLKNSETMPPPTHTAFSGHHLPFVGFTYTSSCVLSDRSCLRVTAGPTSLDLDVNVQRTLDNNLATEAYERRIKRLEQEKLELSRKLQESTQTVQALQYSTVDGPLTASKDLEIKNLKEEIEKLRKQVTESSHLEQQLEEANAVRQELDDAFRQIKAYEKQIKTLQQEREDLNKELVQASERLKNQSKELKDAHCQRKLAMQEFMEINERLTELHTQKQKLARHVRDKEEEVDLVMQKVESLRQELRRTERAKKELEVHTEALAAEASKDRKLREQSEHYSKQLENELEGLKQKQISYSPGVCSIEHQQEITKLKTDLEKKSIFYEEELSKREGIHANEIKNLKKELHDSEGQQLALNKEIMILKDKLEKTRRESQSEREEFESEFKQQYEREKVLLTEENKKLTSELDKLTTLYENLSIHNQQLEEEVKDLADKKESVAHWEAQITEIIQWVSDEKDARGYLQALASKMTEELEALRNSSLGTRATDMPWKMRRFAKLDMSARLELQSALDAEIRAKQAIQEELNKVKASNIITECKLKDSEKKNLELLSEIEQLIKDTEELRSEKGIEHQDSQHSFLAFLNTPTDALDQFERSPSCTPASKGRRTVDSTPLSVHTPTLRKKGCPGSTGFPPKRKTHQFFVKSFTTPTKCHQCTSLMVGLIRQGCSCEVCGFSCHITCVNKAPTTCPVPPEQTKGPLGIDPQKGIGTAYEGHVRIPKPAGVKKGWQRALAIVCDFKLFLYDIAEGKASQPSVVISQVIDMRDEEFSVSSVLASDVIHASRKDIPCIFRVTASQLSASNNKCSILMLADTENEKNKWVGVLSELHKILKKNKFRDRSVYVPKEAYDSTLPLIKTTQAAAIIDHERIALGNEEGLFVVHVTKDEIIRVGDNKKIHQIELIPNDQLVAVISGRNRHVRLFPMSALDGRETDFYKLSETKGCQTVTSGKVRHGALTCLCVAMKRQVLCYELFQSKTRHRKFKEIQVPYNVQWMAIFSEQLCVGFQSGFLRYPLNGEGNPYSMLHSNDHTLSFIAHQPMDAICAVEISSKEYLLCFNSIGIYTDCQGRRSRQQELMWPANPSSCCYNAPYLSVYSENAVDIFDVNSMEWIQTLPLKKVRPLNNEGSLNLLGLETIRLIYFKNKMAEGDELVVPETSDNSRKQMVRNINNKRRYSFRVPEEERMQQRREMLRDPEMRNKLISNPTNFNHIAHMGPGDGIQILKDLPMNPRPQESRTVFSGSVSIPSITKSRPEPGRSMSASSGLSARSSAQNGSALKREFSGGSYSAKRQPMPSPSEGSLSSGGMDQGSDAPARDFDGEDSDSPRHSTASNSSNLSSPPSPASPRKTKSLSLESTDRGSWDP
Some molecules, each annotated with its measured inhibition.
Give the value in % but do not write % after it.

Worked cases, inhibition given:
- compound: "CN1CCC(C(=O)Nc2n[nH]c3nnc(-c4ccccc4)cc23)CC1"
  observation.type: "inhibition"
  assay.value: 2.63
- compound: "COc1cc2ncn(-c3cc(OCc4ccccc4C(F)(F)F)c(C(N)=O)s3)c2cc1OC"
  observation.type: "inhibition"
  assay.value: -3.27
- compound: "Cc1ccc(C(=O)NC2CCCCC2)cc1-c1ccc(C(=O)NCC2CC2)cc1"
  observation.type: "inhibition"
  assay.value: 0.21
- compound: "COc1cc2ncn(-c3cc(O[C@H](C)c4ccccc4Cl)c(C(N)=O)s3)c2cc1OC"
  observation.type: "inhibition"
  assay.value: 5.55
- compound: "COc1ccc(-c2ccncc2)cc1C(N)=O"
  observation.type: "inhibition"
  assay.value: 6.38

Measured inhibition for this entry N#Cc1c(NC(=O)c2cccc3ccccc23)sc2c1CCCC2 on Serine/threonine-protein kinase MRCK alpha (Homo sapiens) (UniProt Q5VT25): -0.12

Record Nc1nc(-c2ccc3c(c2)C(=Cc2cc(Br)c(O)c(Br)c2)C(=O)N3)cs1 has Serine/threonine-protein kinase MRCK alpha (Homo sapiens) (UniProt Q5VT25) inhibition equal to -1.5

* * *

biological target: Dual specificity tyrosine-phosphorylation-regulated kinase 1A (Homo sapiens) (UniProt Q13627); conditions: at 1 µM
Description: GSK_PKIS: DYRK1A mean inhibition at 1 uM [Nanosyn]
Known inhibition of a selection of compounds
Write the number in % without appending the unit.

Past entries and their recorded results:
- compound: "Fc1cccc(COc2ccc(Nc3ncnc4sc(-c5cccs5)cc34)cc2Cl)c1"
  assay.value: 6.51
- compound: "Cc1cc(O)cc(C)c1/C=C/c1cncc(-c2nn[nH]n2)c1"
  assay.value: 2.98
- compound: "Cc1nnc(-c2ccc(C)c(-c3ccc(C(=O)Nc4cccc(C#N)c4)cc3)c2)o1"
  assay.value: 3.59
- compound: "NCc1ccc(-c2nc(-c3ccc(Cl)c(O)c3)c(-c3ccncc3)[nH]2)cc1"
  assay.value: 3.85
- compound: "CS(=O)(=O)CCNCc1ccc(-c2ccc3ncnc(Nc4ccc(OCc5ccccc5)c(Cl)c4)c3c2)o1"
  assay.value: 1.73

Note to self: inhibition recorded for CS(=O)(=O)CCNCc1nc(-c2ccc3ncnc(Nc4ccc(F)c(Cl)c4)c3c2)cs1 was 1.24

The recorded inhibition for CN1CCC(C(=O)Nc2n[nH]c3nnc(-c4ccccc4)cc23)CC1 is 33.9

Entry Nc1ncnc2occ(-c3ccc(NC(=O)Nc4cc(C(F)(F)F)cc(C(F)(F)F)c4)cc3)c12 ; inhibition = 2.4

// inhibition lookup, compound = O=C1Nc2ccc(C(=O)c3ccco3)cc2C1=Cc1cc(Cl)c(O)c(Cl)c1 , result: 78.3

Form: compound = CS(=O)(=O)Nc1ccc(N/C=C2\C(=O)Nc3ccccc32)cc1 ; inhibition = 10.4

compound COc1cccc(-n2ncc3c(N/N=C/c4cccc(F)c4)ncnc32)c1 , inhibition observed: 25.9

Given item CNC(=O)c1cncc(/C=C/c2c(Cl)cccc2Cl)c1 , the value recorded as its inhibition is -1.12

Input O=C(Nc1n[nH]c2nc(-c3ccco3)c(Br)cc12)C1CC1 . Output inhibition: 4.33

Just so you know, measured inhibition for CS(=O)(=O)CCN(CC#N)Cc1ccc(-c2ccc3ncnc(Nc4ccc(OCc5cccc(F)c5)c(Cl)c4)c3c2)o1 came out at -0.17

Per the records, this compound ( NS(=O)(=O)c1ccc(N/N=C2\C(=O)Nc3ccc(C(=O)NCCc4c[nH]cn4)cc32)cc1 ) has inhibition equal to 30.6

The measured inhibition associated with CCn1c(-c2nonc2N)nc2ccncc21 reads 2.88

Just so you know, measured inhibition for CCCN1CCC(Oc2cc(Nc3nc(Nc4cccc(F)c4C(N)=O)c4cc[nH]c4n3)c(OC)cc2Cl)CC1 came out at 25.9

Given item O=C1NC(=O)C(c2cccc(Cl)c2)=C1Nc1ccc(O)c(Cl)c1 , the value recorded as its inhibition is 17.3

Query COc1cc2ncn(-c3cc(O[C@@H](C)c4ccccc4Cl)c(C(N)=O)s3)c2cc1OC yields inhibition of 8.19

Lookup result for [O-][S+]1CCN(Cc2ccc(-c3ccc4ncnc(Nc5ccc(OCc6ccccc6)c(F)c5)c4c3)o2)CC1 ; measured inhibition: 2.98

Recorded result, NC(=O)c1cccc(Nc2nccc(Nc3cccc4[nH]ncc34)n2)c1 , inhibition: 22.1

For record Cc1cccc(-c2n[nH]cc2-c2ccc3ncccc3n2)n1 the listed inhibition is 6.72

* * *

target: Serine/threonine-protein kinase PAK 1 (Homo sapiens); conditions: at 0.1 µM;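 note: values are mean PAK1 inhibition from the GSK PKIS kinase inhibitor set screen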
Items are presented alongside their recorded inhibition.

- compound: "COc1ccc(-c2ccncc2)cc1C(N)=O"
  target.system: "Serine/threonine-protein kinase PAK 1 (Homo sapiens)"
  inhibition: "4.54%"
- compound: "CCn1c(-c2nonc2N)nc2c(C#CC(C)(C)O)nc(OC[C@@H](N)c3ccccc3)cc21"
  target.system: "Serine/threonine-protein kinase PAK 1 (Homo sapiens)"
  inhibition: "-5.15%"
- compound: "CCn1c(-c2nonc2N)nc2c(C#CC(C)(C)O)nc(CN3CCCC3)cc21"
  target.system: "Serine/threonine-protein kinase PAK 1 (Homo sapiens)"
  inhibition: "0.14%"
- compound: "Cc1cccc(-c2n[nH]cc2-c2ccc3ncccc3n2)n1"
  target.system: "Serine/threonine-protein kinase PAK 1 (Homo sapiens)"
  inhibition: "-2.12%"
- compound: "CCN1CCC(CC(=O)Nc2n[nH]c3nc(-c4cccs4)c(Br)cc23)CC1"
  target.system: "Serine/threonine-protein kinase PAK 1 (Homo sapiens)"
  inhibition: "-4.19%"

Now consider a different molecule.
Serine/threonine-protein kinase PAK 1 (Homo sapiens) inhibition of COc1ccc(-c2coc3ncnc(N)c23)cc1 is 8.03%
